Measured IC50 of individual entries
- SUBJECT OF TEST: Neutrophil collagenase (Homo sapiens, UniProt P22894)
- Sequence (P22894 whole entry): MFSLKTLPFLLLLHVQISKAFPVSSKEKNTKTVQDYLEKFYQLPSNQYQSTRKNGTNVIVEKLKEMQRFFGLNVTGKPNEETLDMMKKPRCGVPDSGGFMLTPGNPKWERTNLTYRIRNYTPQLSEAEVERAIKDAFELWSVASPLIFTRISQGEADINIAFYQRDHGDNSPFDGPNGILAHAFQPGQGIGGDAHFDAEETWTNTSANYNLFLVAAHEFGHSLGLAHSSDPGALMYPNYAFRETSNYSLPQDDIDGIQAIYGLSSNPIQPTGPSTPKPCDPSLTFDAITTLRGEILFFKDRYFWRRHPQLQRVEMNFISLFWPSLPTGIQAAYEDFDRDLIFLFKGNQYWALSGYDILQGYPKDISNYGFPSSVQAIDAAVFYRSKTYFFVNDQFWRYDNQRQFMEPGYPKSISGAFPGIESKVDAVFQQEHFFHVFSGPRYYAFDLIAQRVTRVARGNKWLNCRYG
- PROTOCOL DETAILS: Inhibitory concentration against MMP-8
Kindly provide the numeric value in µM only, without the unit symbol.

A selection of reference data follows.
1) COc1c(Br)ccc2oc(C(=O)Nc3ccc(-c4ccc(S(=O)(=O)N[C@H](C(=O)O)C(C)C)cc4)cc3)c(C)c12    0.073
2) COc1c(C)ccc2oc(C(=O)Nc3ccc(-c4ccc(S(=O)(=O)N[C@H](C(=O)O)C(C)C)cc4)cc3)c(C)c12    0.052
3) CCc1ccc2oc(C(=O)Nc3ccc(-c4ccc(S(=O)(=O)N[C@H](C(=O)O)C(C)C)cc4)cc3)c(C)c2c1O    0.094

Tell me IC50 reported for COc1c(I)ccc2oc(C(=O)Nc3ccc(-c4ccc(S(=O)(=O)N[C@H](C(=O)O)C(C)C)cc4)cc3)c(C)c12 0.404

Tell me IC50 reported for CCc1ccc2oc(C(=O)Nc3ccc(-c4ccc(S(=O)(=O)N[C@H](C(=O)O)C(C)C)cc4)cc3)c(C)c2c1OC 0.101

Tell me IC50 reported for Cc1c(C(=O)Nc2ccc(-c3ccc(S(=O)(=O)N[C@H](C(=O)O)C(C)C)cc3)cc2)oc2ccc(Cl)c(OC(C)C)c12 0.11

###

- Species: Homo sapiens
- PROTOCOL DETAILS: Ratio of the inhibitory concentration against MMP-2 to that of MMP-13
QUANTITY KIND: Ratio
The answer should be a number; do not append a unit.

A selection of reference data follows.
1. Cc1c(C(=O)Nc2ccc(-c3ccc(S(=O)(=O)N[C@H](C(=O)O)C(C)C)cc3)cc2)oc2ccccc12    44
2. COc1c(Br)ccc2oc(C(=O)Nc3ccc(-c4ccc(S(=O)(=O)N[C@@H](C(=O)O)C(C)C)cc4)cc3)c(C)c12    202

Tell me Ratio reported for COc1c(Cl)ccc2oc(C(=O)Nc3ccc(-c4ccc(S(=O)(=O)N[C@H](C(=O)O)C(C)C)cc4)cc3)c(C)c12 785

###

- SUBJECT OF TEST: UniProtKB P45452
pIC50: −log10 of the molar value.
Give rule met when the value for pIC50 is at least 8. Give rule not met when it is less.

1. COc1c(Br)ccc2oc(C(=O)Nc3ccc(-c4ccc(S(=O)(=O)N[C@@H](C(=O)O)C(C)C)cc4)cc3)c(C)c12    rule met
2. CC(C)[C@H](NS(=O)(=O)c1ccc(-c2ccc(NC(=O)c3cc4cc(Br)ccc4o3)cc2)cc1)C(=O)O    rule met

Evaluate CCc1c(C(=O)Nc2ccc(-c3ccc(S(=O)(=O)N[C@H](C(=O)O)C(C)C)cc3)cc2)oc2ccccc12 : pIC50 at minimum 8? rule not met

###

- SUBJECT OF TEST: 72 kDa type IV collagenase (Homo sapiens, UniProt P08253)
- Sequence (P08253 whole entry): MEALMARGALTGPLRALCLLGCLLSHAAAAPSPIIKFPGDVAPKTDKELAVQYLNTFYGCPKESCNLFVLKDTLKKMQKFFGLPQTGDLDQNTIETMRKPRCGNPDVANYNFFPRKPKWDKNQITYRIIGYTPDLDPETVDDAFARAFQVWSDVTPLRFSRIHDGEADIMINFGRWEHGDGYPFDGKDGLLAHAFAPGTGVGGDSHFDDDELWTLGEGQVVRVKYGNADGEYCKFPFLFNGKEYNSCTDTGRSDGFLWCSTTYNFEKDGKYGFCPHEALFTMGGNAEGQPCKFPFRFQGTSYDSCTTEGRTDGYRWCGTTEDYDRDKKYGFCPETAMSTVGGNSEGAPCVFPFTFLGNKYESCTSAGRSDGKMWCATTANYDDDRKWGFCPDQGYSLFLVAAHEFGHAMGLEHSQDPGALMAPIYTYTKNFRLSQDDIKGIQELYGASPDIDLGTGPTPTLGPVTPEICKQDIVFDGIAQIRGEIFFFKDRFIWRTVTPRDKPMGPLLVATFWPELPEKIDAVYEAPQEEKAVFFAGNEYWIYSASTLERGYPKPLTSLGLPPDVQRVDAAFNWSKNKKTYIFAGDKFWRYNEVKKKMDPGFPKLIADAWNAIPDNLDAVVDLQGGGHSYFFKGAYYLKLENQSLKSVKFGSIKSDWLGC
- PROTOCOL DETAILS: Inhibitory concentration against MMP-2
QUANTITY KIND: IC50

A selection of reference data follows.
1) Cc1c(C(=O)Nc2ccc(-c3ccc(S(=O)(=O)N[C@@H](C(=O)O)C(C)C)cc3)cc2)oc2ccccc12    164 nM
2) COc1c(Br)ccc2oc(C(=O)Nc3ccc(-c4ccc(S(=O)(=O)N[C@@H](C(=O)O)C(C)C)cc4)cc3)c(C)c12    688 nM

# context switch: different compound, same IC50
Tell me IC50 reported for CC(C)[C@H](NS(=O)(=O)c1ccc(-c2ccc(NC(=O)c3oc4ccccc4c3-c3ccccc3)cc2)cc1)C(=O)O 1200 nM

Where do the numbers come from? From ChEMBL document CHEMBL1143494.
